GI50 reference
- System: MDA-MB-435
- ASSAY NOTES: NCI tumour cell line growth inhibition, 48 h
The source made the active and inactive calls. No stated cut-off is given here; in the data, active = GI50 up to about 1.1 µM and inactive = higher.

Example entries and their recorded answers appear below.
>  <COMPOUND>
CC(=O)OCC1OC(n2c3c(cc(C#N)c2=S)CCCCCC3)C(OC(C)=O)C(OC(C)=O)C1OC(C)=O (stereo not given)

>  <EXPERIMENTAL TARGET>
MDA-MB-435

>  <GI50>
> 100 µM (inactive)

$$$$
>  <COMPOUND>
COc1ccc(/N=[N+](\[O-])c2ccc(OC)cc2)cc1

>  <EXPERIMENTAL TARGET>
MDA-MB-435

>  <GI50>
> 100 µM (inactive)

$$$$
>  <COMPOUND>
COc1ccc2c(c1)CCCc1c-2nc2ccccc2c1N

>  <EXPERIMENTAL TARGET>
MDA-MB-435

>  <GI50>
12 µM (inactive)

$$$$
>  <COMPOUND>
COc1cc(/C=C/C(=O)Oc2ccc(NC(C)=O)cc2)ccc1C(=O)OCc1ccccc1

>  <EXPERIMENTAL TARGET>
MDA-MB-435

>  <GI50>
> 100 µM (inactive)

$$$$

Note: attention shifts to another entry.
query: Entry `O=C1c2sc(-c3ccc(Cl)cc3)cc2-n2cccc21` needs its GI50 filled in; supply it.
result: > 100 µM (inactive)
